Assay Remarks: NCI Yeast Anticancer Drug Screen. Data for the mlh1 rad18 strain (AID 175)
Measurement Parameters: S. cerevisiae mlh1 rad18 strain growth inhibition; at 50.0 µM; hits give high values
The panel holds about 79,000 compounds, 15% with a hit somewhere; the sample as a whole holds those more often.
Item-by-item account of growth inhibition

Compound	growth inhibition / %
Cc1cccc(C)c1OCC1=NCCN1	-13.1
C1CN([PH+](N2CC2)N2CC2)CCO1.C1CN([PH+](N2CC2)N2CC2)CCO1.[I][Pd][I]	-4.4
C(=C/[PH+](c1ccccc1)c1ccccc1)/[PH+](c1ccccc1)c1ccccc1.[C-]#[O+].[C-]#[O+].[C-]#[O+].[C-]#[O+].[C-]#[O+].[Mo+2].[Mo+4].[c-]1[c-][c-][cH-][c-]1.[c-]1[c-][c-][cH-][c-]1	91.2
ClCCn1c(/C=C/c2nc3ccccc3n2CCCl)nc2ccccc21	20.6
[Ni+2].[O-]c1ccc(Cl)cc1C=NCc1ccccn1.[O-]c1ccc(Cl)cc1C=NCc1ccccn1	97.5
CC1(C)C2CC[C@@]1(C)C(=O)C2Br (some centres not stated)	-8.7
CCC[CH2][Sn-]([CH2]CCC)([CH2]CCC)[O]c1cc(Cl)c(Cl)cc1Cl	90.2
c1cc(CCN2CCCCC2)ccn1	-25.1
COc1cc2c(c(OC)c1OC)-c1ccc(O)cc1C(NC(C)=O)CC2 (configuration not stated)	31.2
O=C1NC(=S)NC(=O)C1=CC1CC1	29.6
CCCCOC(=O)C(O)CF (configuration not stated)	-29.6
COP(=O)(OC)N1CCCCC1	27.6
Cc1ccccc1-n1c(CCl)nc2ccc(Br)cc2c1=O	27.1
Cn1c(=O)n(C2(C)C[Se]C2)c2ccccc21	-22.5
CCCNC1=C(C)C(=O)C2=C(C1=O)[C@H](COC(N)=O)[C@]1(OC)[C@@H]3N[C@@H]3CN21	79.8
CCCCN1C(=O)C(=C/C=C/C=C2\Oc3ccccc3N2CCCS(=O)(=O)O)C(=O)N(CCCC)C1=S	27
CC1(C)CCC(C)(C)c2c1ccc(O)c2Cc1c(O)ccc2c1C(C)(C)CCC2(C)C	-6.8
Cc1cc(N(CCCl)CCCl)ccc1C=Nc1ccc(-c2csc(Cc3ccccc3)n2)c(Cl)c1	93.7
CCCCN1CCC2(CC1)COCc1ccccc12	44.1
CCCCCCCCc1ccc(OCCN(CCCl)CCCl)cc1	99.2
[Cl-].[Cl-].[Cl-].[O-]c1cccc2cccnc12.[O-]c1cccc2cccnc12.[O]=[Mo]	87.7
O=S(=O)(F)c1cc(Cl)c(S)cc1Cl	-2.45
CCOP(=S)(OCC)OP(=O)(CC)CC	-2.55
Nc1cc(N)nc(N)n1	6.2
CCOC(OCC)C(CC)[Se]c1ccccc1 (configuration not stated)	-7.9
C[N+](C)(C)NP(=O)(N[N+](C)(C)C)Oc1ccccc1	28.1
Nc1nc(N)c(-c2ccc(Cl)c(Cl)c2)c(COc2cccc(CNS(=O)(=O)c3ccc(S(=O)(=O)F)cc3)c2)n1	47
NC(N)=N/N=C/c1c[nH]c2ccccc12	-25.1
N.N.N.N.N.N.[I-].[Os]	-2
CCOP(=O)(OCC)C1CCC(=O)O1 (configuration not stated)	10.6
O=[As](O)(O)c1cc(F)ccc1F	-8.3
c1cc2c3c(cccc3c1)CC2	-14.6
CC1(C)CC(O)CC(C)(C)N1O	16.4
N.N.N.N.[Co+3].[O-][Cl+3]([O-])([O-])[O-].[OH3+].[OH3+]	-13.6
NC1=C(N2CC2)C(=O)C(N)=C(N2CC2)C1=O	-12.7
N#CC(C#N)=Cc1ccccc1F	12.7
CCCCC1CN1C(=N)OCC (configuration not stated)	29.1
